Test: Drug level in Rhesus monkey plasma assessed as unmetabolized fractions at 3 mins
Assay type: ADME, cell-free, Macaca mulatta
Conditions: read-out: Activity
METRIC_NAME: remaining at 0.05 h (%)
# number only, unit % dropped from output

So, Cc1ccc([C@@H]2C[C@H]3CC[C@@H](N3)[C@H]2C(=O)O[11CH3])cc1F ? Its remaining at 0.05 h was 25

----------
Experiment: Drug level in Rhesus monkey plasma assessed as unmetabolized fractions at 30 mins
Format: ADME, cell-free, Macaca mulatta
Details: read-out: Activity
METRIC_NAME: remaining at 0.5 h

So, Cc1ccc([C@@H]2C[C@H]3CC[C@@H](N3)[C@H]2C(=O)O[11CH3])cc1F ? Its remaining at 0.5 h was 1.6%

----------
A short record of Ki observed with UniProt Q01959 follows.
Sequence (Q01959 whole entry): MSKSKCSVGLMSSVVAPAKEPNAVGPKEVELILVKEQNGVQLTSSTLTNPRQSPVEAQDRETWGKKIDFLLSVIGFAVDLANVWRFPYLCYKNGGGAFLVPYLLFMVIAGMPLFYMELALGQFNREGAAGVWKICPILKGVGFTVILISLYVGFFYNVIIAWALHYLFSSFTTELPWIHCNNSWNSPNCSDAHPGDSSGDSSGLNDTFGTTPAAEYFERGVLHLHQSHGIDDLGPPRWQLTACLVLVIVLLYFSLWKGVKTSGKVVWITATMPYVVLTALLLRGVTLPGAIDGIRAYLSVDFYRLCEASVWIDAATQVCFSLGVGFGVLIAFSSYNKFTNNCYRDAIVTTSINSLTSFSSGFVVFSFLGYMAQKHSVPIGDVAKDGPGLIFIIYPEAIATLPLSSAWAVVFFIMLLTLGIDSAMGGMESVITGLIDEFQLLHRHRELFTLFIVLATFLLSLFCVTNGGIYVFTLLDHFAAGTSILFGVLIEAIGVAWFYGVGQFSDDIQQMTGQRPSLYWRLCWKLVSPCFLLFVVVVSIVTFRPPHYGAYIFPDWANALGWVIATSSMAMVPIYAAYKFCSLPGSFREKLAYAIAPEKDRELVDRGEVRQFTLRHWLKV
# number only, unit nM dropped from output

Past entries and their recorded results:
C#Cc1ccc([C@@H]2C[C@H]3CC[C@@H](N3)[C@H]2C(=O)OC)cc1 :: 2.26
COC(=O)[C@@H]1[C@H]2CC[C@H](C[C@H]1c1ccc(C)c(F)c1)N2 :: 6.42
COC(=O)[C@@H]1[C@H]2CC[C@H](C[C@H]1c1ccc(C)cc1)N2 :: 11.5
C=Cc1ccc([C@@H]2C[C@H]3CC[C@@H](N3)[C@H]2C(=O)OC)cc1 :: 10.1

Continue with the compound presented below.
Record for COC(=O)[C@@H]1[C@H]2CC[C@H](C[C@H]1c1ccc(I)cc1)N2 under target or system UniProt Q01959: Ki reported as 2.25

----------
Experiment: Drug level in Rhesus monkey plasma assessed as unmetabolized fractions at 10 mins
Assay type: ADME, cell-free, Macaca mulatta
Conditions: read-out: Activity
METRIC_NAME: remaining at 10 min (%)
# number only, unit % dropped from output

So, Cc1ccc([C@@H]2C[C@H]3CC[C@@H](N3)[C@H]2C(=O)O[11CH3])cc1F ? Its remaining at 10 min was 7.5

----------
Molecular target: Monoamine transporters; Norepinephrine & dopamine (Homo sapiens, UniProt Q01959+P23975)
Experiment: Selectivity of human NET over human DAT expressed in HEK293 cells
Assay type: cell-based
Label rule, in plain words: NET over DAT selectivity ratio (no unit) of 2 nM and up is yes, under 2 nM is no.

Example cases with answers are listed next.
COC(=O)[C@@H]1[C@H]2CC[C@H](C[C@H]1c1ccc(I)cc1)N2 :: no
C#Cc1ccc([C@@H]2C[C@H]3CC[C@@H](N3)[C@H]2C(=O)OC)cc1 :: no
COC(=O)[C@@H]1[C@H]2CC[C@H](C[C@H]1c1ccc(C)cc1)N2 :: yes
COC(=O)[C@@H]1[C@H]2CC[C@H](C[C@H]1c1ccc(C)c(F)c1)N2 :: yes

Proceed to the following item.
Is reported NET over DAT selectivity ratio (no unit) greater than or equal to 2 nM here: C=Cc1ccc([C@@H]2C[C@H]3CC[C@@H](N3)[C@H]2C(=O)OC)cc1
yes
